The values you see were collected from patent US20240336572A1.

- TARGET ENTITY: AMPK 221 (Homo sapiens, UniProt O43741+P54646)
- Construct: open reading frames encoding the full-length α2, β2 and δ1 subunits of human AMPK; made in house; host or cells: E. coli BL21-CodonPlus (DE3)-RIPL, pET-14b
- Sequence (P54646 whole entry): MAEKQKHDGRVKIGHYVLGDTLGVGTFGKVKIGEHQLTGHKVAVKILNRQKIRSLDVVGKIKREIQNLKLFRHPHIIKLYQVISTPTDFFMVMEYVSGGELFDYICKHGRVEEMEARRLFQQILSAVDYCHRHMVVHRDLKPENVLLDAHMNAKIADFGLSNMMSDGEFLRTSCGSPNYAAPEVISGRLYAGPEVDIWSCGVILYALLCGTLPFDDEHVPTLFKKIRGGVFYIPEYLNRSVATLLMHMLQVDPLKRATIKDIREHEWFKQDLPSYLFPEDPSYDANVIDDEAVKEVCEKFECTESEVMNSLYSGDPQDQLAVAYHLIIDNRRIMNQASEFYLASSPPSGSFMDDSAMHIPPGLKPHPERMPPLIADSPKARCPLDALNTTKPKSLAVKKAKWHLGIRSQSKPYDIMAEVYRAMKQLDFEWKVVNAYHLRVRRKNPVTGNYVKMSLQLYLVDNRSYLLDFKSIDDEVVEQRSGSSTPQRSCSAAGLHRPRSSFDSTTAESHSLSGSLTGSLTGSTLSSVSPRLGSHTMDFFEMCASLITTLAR
- Sequence (O43741 whole entry): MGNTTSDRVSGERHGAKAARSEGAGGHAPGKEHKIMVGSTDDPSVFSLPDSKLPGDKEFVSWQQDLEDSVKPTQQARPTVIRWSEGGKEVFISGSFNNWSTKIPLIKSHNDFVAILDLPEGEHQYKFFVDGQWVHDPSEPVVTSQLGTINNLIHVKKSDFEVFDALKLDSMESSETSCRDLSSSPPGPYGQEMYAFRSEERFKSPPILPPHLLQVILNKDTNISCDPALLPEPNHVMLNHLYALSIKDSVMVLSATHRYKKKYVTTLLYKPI
- Sequence (P54619 whole entry partner): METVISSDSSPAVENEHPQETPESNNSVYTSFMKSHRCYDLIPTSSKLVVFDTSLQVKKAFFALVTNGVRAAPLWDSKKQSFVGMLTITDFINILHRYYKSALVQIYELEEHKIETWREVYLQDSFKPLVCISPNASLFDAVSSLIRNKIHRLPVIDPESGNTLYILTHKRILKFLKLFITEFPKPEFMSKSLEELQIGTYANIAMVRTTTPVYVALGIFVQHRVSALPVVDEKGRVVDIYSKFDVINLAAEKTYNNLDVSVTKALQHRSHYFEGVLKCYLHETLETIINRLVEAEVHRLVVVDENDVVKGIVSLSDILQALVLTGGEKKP
- EXPERIMENT SUMMARY: Biochemical profiling of AMPK activators by AMPK221 (HTRF/TR-FRET assay, SAMS peptide, PP2A dephosphorylation protection)
- MEASUREMENT CONTEXT: phosphorylated AMPK 221; maximal activation
READOUT: Emax (%)

>>> experimental_result("COC(=O)c1ccc(-c2ccc(-c3cc4c(CCC(=O)O)n[nH]c4cc3Cl)cc2)c(O)c1")
61
>>> experimental_result("Cc1ccc(F)c(O)c1-c1ccc(-c2cc3c(CCC(=O)O)n[nH]c3cc2Cl)cc1")
61
>>> experimental_result("CCOc1cccc(-c2ccc(-c3cc4c(CCC(=O)O)n[nH]c4cc3Cl)cc2)c1O")
61
>>> experimental_result("COc1cc(F)cc(-c2ccc(-c3cc4c(CCC(=O)O)n[nH]c4cc3Cl)cc2)c1O")
64
>>> experimental_result("O=C(O)CCc1n[nH]c2cc(Cl)c(-c3ccc(-c4cccc(OC(F)F)c4O)cc3)cc12")
63
>>> experimental_result("O=C(O)CCc1n[nH]c2cc(Cl)c(-c3ccc(-c4ccc(Cl)cc4O)cc3)cc12")
48
>>> experimental_result("O=C(O)CNc1n[nH]c2cc(Cl)c(-c3ccc(-c4ccccc4O)cc3)cc12")
34
>>> experimental_result("NC(=O)CSc1ccc(-c2ccc(-c3cc4c(CCC(=O)O)n[nH]c4cc3Cl)cc2)cc1")
49
>>> experimental_result("Cc1cccc(O)c1-c1ccc(-c2cc3c(CCC(=O)O)n[nH]c3cc2Cl)cc1")
52
>>> experimental_result("COc1ccc(F)c(-c2ccc(-c3cc4c(CCC(=O)O)n[nH]c4cc3Cl)cc2)c1O")
66
>>> experimental_result("O=C(O)CCc1n[nH]c2cc(Cl)c(-c3ccc(-c4ccc(F)cc4O)cc3)cc12")
59
>>> experimental_result("Cc1cccc(O)c1-c1ccc(-c2cc3c(CCCC(=O)O)n[nH]c3cc2Cl)cc1")
63
>>> experimental_result("O=C(O)CCc1n[nH]c2cc(Cl)c(-c3ccc(-c4ccc(F)c(F)c4O)cc3)cc12")
60
